// reported IC50 for each item listed
- Tested on: TJ905 (human glioma)
- testName: In vitro tumour cell growth inhibition (MTT), TJ905
- Assay type: cell-based
- studyConditions: Homo sapiens, Table 2 experiment, 96 h

Example cases with answers are listed next.
- molecule: "Cn1nnc2c(C(N)=O)ncn2c1=O [Temozolomide]"
  IC50: "> 100 µg/mL"
- molecule: "Cn1nnc2c(C(=O)O)ncn2c1=O [temozolomide acid]"
  IC50: "> 100 µg/mL"
- molecule: "O=NN(CCCl)C(=O)NCCCl"
  IC50: "67.3 µg/mL"

Could you now look at the following molecule, please?
Prompt: Param readout = IC50; param system = TJ905 (human glioma); param query = CCCCCCOC(=O)c1ncn2c(=O)n(C)nnc12 [temozolomide hexyl ester] ; response: value
Completion: > 100 µg/mL
